# procedureText: Pharmacokinetics in rats after IV and PO administration
# Type: in vivo, male Sprague–Dawley rats
# assayContext: male, Sprague-Dawley, rat, plasma, po, 27 mg/kg
measureName: bioavailability

**Query** Which value of bioavailability has been reported for CCN(CC)CCN(CCN(CC)CC)c1cc(OC)c(OC)cc1Br [Compound 1] in the records?
**Result** ~27%

----------
# procedureText: Pharmacokinetics in rats after IV and PO administration
# Assay type: in vivo, male Sprague–Dawley rats
# assayContext: male, Sprague-Dawley, rat, plasma, iv, 3 mg/kg; read-out: plasma volume of distribution
measureName: Vd (L/kg)
Report the figure in L/kg without appending any unit label.

**Query** Which value of Vd has been reported for CCN(CC)CCN(CCN(CC)CC)c1cc(OC)c(OC)cc1Br [Compound 1] in the records?
**Result** 51
